Consider the following compounds and their measured MIC readings.
tested on: Morganella; assay: Compound was tested in vitro for antibacterial activity against Morganella.; type: functional
Give the quantity in µg/mL, number only.

Worked cases, answers included:
ENTRY_SMILES: C[C@@H](O)[C@H]1C(=O)N2C(C(=O)[O-])=C(OCCOC(N)=O)S[C@H]12.[Na+]
TARGET_OF_ASSAY: Morganella
NUMERIC_READOUT: 16
--
ENTRY_SMILES: COC1=C(C(=O)[O-])N2C(=O)[C@H]([C@@H](C)O)[C@H]2S1.[Na+]
TARGET_OF_ASSAY: Morganella
NUMERIC_READOUT: 45.3
--
ENTRY_SMILES: CCOC1=C(C(=O)[O-])N2C(=O)[C@H]([C@@H](C)O)[C@H]2S1.[Na+]
TARGET_OF_ASSAY: Morganella
NUMERIC_READOUT: 45.3

Next, consider the following compound.
# MIC lookup, item CCCOC1=C(C(=O)[O-])N2C(=O)[C@H]([C@@H](C)O)[C@H]2S1.[Na+]
64
